Entries and their pIC50 values follow.
target: LTC4S (Homo sapiens (Human)); test: Human whole blood HTRF assay (LTC4 release after calcium ionophore A23187); format: cell-based; settings: human whole blood diluted 1:3, 4 h incubation, calcium ionophore A23187 stimulation, LTC4 by HTRF; read-out: human whole blood HTRF IC50
// pIC50 is dimensionless: -log10 of concentration (M)

1. O=C1CCCC2(CCN(c3cc(-n4cc(F)cn4)nc(N4CCOCC4)n3)CC2)N1c1ccc(F)c(F)c1 | 7.17
2. Nc1nc(OCCO)cc(N2CCC3(CCCC(=O)N3c3ccc(F)c(F)c3)CC2)n1 | 6.08
3. Nc1nc(OC2CC(F)(F)C2)cc(N2CCC3(CCCC(=O)N3c3ccc(F)c(F)c3)CC2)n1 | 8.40

### Prompt Item O=C1CCCC2(CCN(c3ccn(-c4ccc(F)cc4)n3)CC2)N1c1ccc(Cl)c(F)c1 : provide pIC50
### Response 6.44

### Prompt Item O=C1CCCC2(CCN(c3ncc(-c4ccc(F)cc4)o3)CC2)N1c1ccc(Cl)c(F)c1 : provide pIC50
### Response 8.15

### Prompt Item O=C1CCCC2(CCN(c3nsc(N4CC(C(F)(F)F)C4)n3)CC2)N1c1ccc(Cl)c(F)c1 : provide pIC50
### Response 6.96

### Prompt Item CN(C)c1nc(N2CCC3(CCCC(=O)N3c3ccc(F)c(F)c3)CC2)cc(-n2cccn2)n1 : provide pIC50
### Response 5.94

### Prompt Item NC(=O)c1nc(N2CCC3(CCCC(=O)N3c3ccc(F)c(F)c3)CC2)cc(-n2cc(C(F)(F)F)cn2)n1 : provide pIC50
### Response 6.92

---

target: LTC4S (Homo sapiens (Human)); assay: Human whole blood HTRF assay (LTC4 release after calcium ionophore A23187); type: cell-based; conditions: human whole blood diluted 1:3, 4 h incubation, calcium ionophore A23187 stimulation, LTC4 by HTRF; read-out: human whole blood HTRF IC50
Rule for this label: y means IC50 is less than 8 nM; n means IC50 is at least 8 nM.

1. O=C1CCCC2(CCN(c3cc(-n4cccn4)nc(C(F)(F)F)n3)CC2)N1c1ccc(F)c(F)c1 | n

### Prompt Dear reviewer, please state whether CC(C)(O)c1nc(N2CCC3(CCCC(=O)N3c3ccc(F)c(F)c3)CC2)cc(-n2cc(C(F)(F)F)cn2)n1 has IC50 strictly beneath 8 nM.
### Response y

---

Biological target: LTC4S (Homo sapiens (Human), UniProt Q16873)
Experiment: Human whole blood HTRF assay (LTC4 release after calcium ionophore A23187)
Format: cell-based
Conditions: human whole blood diluted 1:3, 4 h incubation, calcium ionophore A23187 stimulation, LTC4 by HTRF; read-out: human whole blood HTRF IC50
Experimental: B. Human Whole Blood HTRF Assay LTC4 synthase catalyzes the conversion of Leukotriene A4 (LTA4) to Leukotriene C4 (LTC4) in the presence of reduced glutathione (GSH) as a co-substrate. […] In order to measure the amount of LTC4 released by cells in the human blood samples during calcium ionophore stimulation, supernatants are analyzed using the Cisbio LTC4 homogeneous time-resolved FRET (HTRF) kit (Cisbio #64LC4PEH). […]
Rule for this label: class 1 means IC50 is less than 20 nM; class 0 means IC50 is at least 20 nM.

Observe how each entry below is paired with its result.
1) O=C1CCCC2(CCN(c3ncnc(N4CCCC4)c3F)CC2)N1c1ccc(Cl)c(F)c1 | class 0
2) O=C1CCCC2(CCN(c3cc(-n4cc(C(F)(F)F)cn4)n[nH]c3=O)CC2)N1c1ccc(F)c(F)c1 | class 1
3) O=C1CCCC2(CCN(c3cc(-c4ccc(F)cc4)n[nH]c3=O)CC2)N1c1ccc(F)c(F)c1 | class 1
4) Nc1nc(N2CCC3(CC2)CC(F)CC(=O)N3c2ccc(F)c(F)c2)cc(C(F)(F)C(F)(F)F)n1 (racemic) | class 1
5) CC1(O)CN(c2nc(N)cc(N3CCC4(CCCC(=O)N4c4ccc(F)c(F)c4)CC3)n2)C1 | class 0
6) O=C1CCCC2(CCN(c3cccc(-c4ccc(F)cc4)n3)CC2)N1c1ccc(Cl)cc1 | class 0
7) O=C1CCCC2(CCN(c3ncnc(N4CC(C(F)(F)F)C4)c3F)CC2)N1c1ccc(Cl)c(F)c1 | class 0
8) CCOC(=O)c1nc(O[C@@H]2COC[C@H]2F)cc(N2CCC3(CCCC(=O)N3c3ccc(F)c(F)c3)CC2)n1 (racemic) | class 1

Here is the next item to consider.
### Prompt Dear reviewer, please state whether O=C1CCCC2(CCN(c3cc(Oc4cccc(Cl)c4)cc[n+]3[O-])CC2)N1c1ccc(F)c(F)c1 has IC50 strictly beneath 20 nM.
### Response class 1
